Test system: Candida albicans
Experiment: Antifungal activity against Candida albicans ATCC 10231 assessed as growth inhibition after 48 hrs by two-fold serial dilution assay
Type: functional
Conditions: ATCC 10231, 48 h
Experimental Endpoint: MIC (µg/mL)
Give bare numbers, in µg/mL.

* Cc1nc(NC(=O)NC2CCCCC2)sc1C(=O)NN | 50
* Clc1ccccc1C(c1ccccc1)(c1ccccc1)n1ccnc1 | 6.25
* CCOC(=O)c1sc(NC(=O)CN2CCOCC2)nc1C | 100
* CCOC(=O)c1sc(NC(=O)C(F)(F)F)nc1C | 100
* Cc1nc(NC(=O)Nc2ccccc2)sc1C(=O)NN | 25

--- query ---
Query: Requested read-out: MIC. Entry: `Cc1ccc(NC(=S)Nc2nc(C)c(C(=O)NN)s2)cc1`
Response: 100
